molecular target: Streptavidin (Streptomyces avidinii); experiment: compounds binding control protein streptavidin – biophysical, small-molecule microarray, 635/667 nm fluorescence, artefact control for SMM compound annotation, primary screen (AID 1147); conditions: higher = more signal;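 note: signal reflects streptavidin binding to arrayed compounds as a control protein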
# composite z-score per record follows
measurement type: composite z-score

1. COCCOC(=O)N1C(=O)[C@@]2(c3ccccc31)[C@H](C(=O)N1CCN(c3ncccn3)CC1)[C@H]1C(=O)O[C@H](c3ccccc3)[C@H](c3ccccc3)N1[C@@H]2c1ccccc1OCCO; 0.631
2. COc1ccc([Si](C)(C)[C@H]2[C@H](CCO)O[C@@]3(C(=O)N(Cc4cccc(N5C(=O)c6ccccc6Oc6ccccc65)c4)c4ccccc43)[C@@H]2C)cc1; 0.4
3. NC(=O)NCC#Cc1ccc2c(c1)[C@]1(C(=O)N2)[C@H](c2ccc(OCCO)cc2)N2[C@H](c3ccccc3)[C@H](c3ccccc3)OC(=O)[C@H]2[C@@H]1C(=O)O; -0.204
4. O=C1OCCC=C[C@H]2OC34C=CCN(c5ccc6ccccc6c5)C(=O)[C@H]3N(CCO)C(=O)[C@@H]4C12 (some centres not stated); -0.906
5. O=C1C=C(c2ccccc2)C(=O)C2=C1CC([C@H]1Oc3ccccc3S(=O)(=O)N3CCC[C@@H]13)=CC2; 0.429
6. O=C1C2C=CC(C(O)C3CCCCC3)N(n3cnnc3)C2C(=O)N1Cc1ccccc1 (configuration not stated); 0.203
7. O=C1[C@H]2C=C(I)[C@H](C[C@@H]2OCCCCCCO)[C@@]12CO2; -0.324
